selectivity ratio for assorted compounds
# Test method notes: Therapeutic index, ratio of HC10 for mouse RBC to IC50 for cytotoxicity against human MCF7 cells
# Assay type: toxicity, cell-based
# Condition label: mouse RBC and MCF7 cells, read-out: TI
Residues, ends and D or L forms follow the SMILES beside them.
No unit in the answer, please; the number alone is enough.

Compound	Observed
CC(C)C[C@H](NC(=O)[C@H](CCC(=O)O)NC(=O)[C@H](CCCCN)NC(=O)[C@H](CCCCN)NC(=O)[C@H](CC(C)C)NC(=O)[C@H](CC(C)C)NC(=O)[C@H](CCCCN)NC(=O)[C@H](CCCCN)NC(=O)[C@H](CC(C)C)NC(=O)[C@H](CC(C)C)NC(=O)[C@H](CCCCN)NC(=O)[C@H](CCCCN)NC(=O)[C@H](CC(C)C)NC(=O)[C@@H](N)CC(C)C)C(N)=O (H-LLKKLLKKLLKKEL-NH2)	4.38

## Task I have this compound here, CC(C)C[C@H](NC(=O)[C@H](CC(C)C)NC(=O)[C@H](CCCCN)NC(=O)[C@H](CCCCN)NC(=O)[C@H](CC(C)C)NC(=O)[C@H](CC(C)C)NC(=O)[C@H](CCCCN)NC(=O)[C@H](CCCCN)NC(=O)[C@H](CC(C)C)NC(=O)[C@H](CC(C)C)NC(=O)[C@H](CCCCN)NC(=O)[C@H](CC(C)C)NC(=O)[C@H](CC(C)C)NC(=O)[C@@H](N)CCCCN)C(N)=O (H-KLLKLLKKLLKKLL-NH2) , and I need its recorded selectivity ratio.
## Result 0.129

## Task I have this compound here, CC(C)C[C@H](NC(=O)[C@H](CC(C)C)NC(=O)[C@H](CCCCN)NC(=O)[C@H](CCCCN)NC(=O)[C@H](CC(C)C)NC(=O)[C@H](CC(C)C)NC(=O)[C@H](CCC(=O)O)NC(=O)[C@H](CCCCN)NC(=O)[C@H](CC(C)C)NC(=O)[C@H](CC(C)C)NC(=O)[C@H](CCCCN)NC(=O)[C@H](CCCCN)NC(=O)[C@H](CC(C)C)NC(=O)[C@@H](N)CC(C)C)C(N)=O (H-LLKKLLKELLKKLL-NH2) , and I need its recorded selectivity ratio.
## Result 1.32

## Task I have this compound here, CC(C)C[C@H](NC(=O)[C@H](CC(C)C)NC(=O)[C@H](CCCCN)NC(=O)[C@H](CCCCN)NC(=O)[C@H](CC(C)C)NC(=O)[C@H](CC(C)C)NC(=O)[C@H](CCCCN)NC(=O)[C@H](CCCCN)NC(=O)[C@H](CC(C)C)NC(=O)[C@H](CC(C)C)NC(=O)[C@@H](N)CCCCN)C(=O)N[C@@H](CCCCN)C(N)=O (H-KLLKKLLKKLLK-NH2) , and I need its recorded selectivity ratio.
## Result 4.66

## Task I have this compound here, CC(C)C[C@H](NC(=O)[C@H](CC(C)C)NC(=O)[C@H](CCC(=O)O)NC(=O)[C@H](CCCCN)NC(=O)[C@H](CC(C)C)NC(=O)[C@H](CC(C)C)NC(=O)[C@H](CCCCN)NC(=O)[C@H](CCCCN)NC(=O)[C@H](CC(C)C)NC(=O)[C@H](CC(C)C)NC(=O)[C@H](CCCCN)NC(=O)[C@H](CCCCN)NC(=O)[C@H](CC(C)C)NC(=O)[C@@H](N)CC(C)C)C(N)=O (H-LLKKLLKKLLKELL-NH2) , and I need its recorded selectivity ratio.
## Result 0.438

## Task I have this compound here, CC(C)C[C@H](NC(=O)[C@H](CC(C)C)NC(=O)[C@H](CCCCN)NC(=O)[C@H](CCCCN)NC(=O)[C@H](CC(C)C)NC(=O)[C@H](CC(C)C)NC(=O)[C@H](CCCCN)NC(=O)[C@H](CCCCN)NC(=O)[C@H](CC(C)C)NC(=O)[C@H](CC(C)C)NC(=O)[C@H](CCCCN)NC(=O)[C@@H](N)CCCCN)C(=O)N[C@@H](CCCCN)C(N)=O (H-KKLLKKLLKKLLK-NH2) , and I need its recorded selectivity ratio.
## Result 4.61

// data source = ChEMBL document CHEMBL5584231
